Origin of the recorded values: patent US10934277B2

method summary: Kinetic solubility measurement in bio-relevant media
Type: physicochemical
test context: thermodynamic from solid; FeSSIF (pH 5.0); 37° C.; 1 h
readout label: solubility at 1 h
State the value, then name its unit.

Inquiry: Note down solubility at 1 h recorded for CC(=O)c1ccc2c(c1)[C@@H]1C=CC[C@@H]1[C@H](c1cc3c(cc1Br)OCO3)N2 [SRR G-1 Form A]
Reply text: 36 µg/mL
